# target_under_test: human amylin receptor (hAMYR3) (Homo sapiens, UniProt O60896+P30988)
# Construct: host or cells: BHK cells (Hollex-1 line expressing hCTR(a) and CRE-Luc), further transfected with human RAMP3
# Sequence (P30988 25-474): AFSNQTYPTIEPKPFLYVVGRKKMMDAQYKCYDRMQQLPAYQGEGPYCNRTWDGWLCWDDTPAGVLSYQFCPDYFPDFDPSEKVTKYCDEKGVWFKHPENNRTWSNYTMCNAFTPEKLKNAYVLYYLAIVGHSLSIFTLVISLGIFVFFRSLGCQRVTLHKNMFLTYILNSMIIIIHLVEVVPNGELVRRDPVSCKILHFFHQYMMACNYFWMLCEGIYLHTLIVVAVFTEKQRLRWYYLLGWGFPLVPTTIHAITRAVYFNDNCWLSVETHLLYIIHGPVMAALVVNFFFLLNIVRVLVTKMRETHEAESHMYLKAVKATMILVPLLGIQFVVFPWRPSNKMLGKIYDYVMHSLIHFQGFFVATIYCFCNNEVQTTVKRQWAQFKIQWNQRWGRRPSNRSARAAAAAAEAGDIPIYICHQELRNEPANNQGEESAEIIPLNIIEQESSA
# Sequence (O60896 24-148): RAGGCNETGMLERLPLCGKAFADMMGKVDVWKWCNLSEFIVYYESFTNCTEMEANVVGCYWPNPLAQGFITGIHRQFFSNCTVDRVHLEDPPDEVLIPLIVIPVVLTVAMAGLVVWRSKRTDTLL
# test_description: Amylin receptor assay, method A (CRE-luciferase reporter, BHK cells)
# Type: cell-based
# condition_summary: hAMYR3 Potency, 1% HSA, EC50, method A, in the presence of 1% HSA
Numbered stars: 1 amine (or outer) side, 2 acyl side, 3 side chain; on linkers, the order of the positions; unused ones are H or OH. Square brackets hold non-standard residues; d marks the D form. Side chains are listed from the residue outwards. * marks the point of attachment. C20 diacid = O=C(O)CCCCCCCCCCCCCCCCCCC(=O)*; C18 diacid = O=C(O)CCCCCCCCCCCCCCCCC(=O)*; C16 diacid = O=C(O)CCCCCCCCCCCCCCC(=O)*; γGlu = O=C(O)[C@H](CCC(=O)[*:2])N[*:1]; AEEA = NCCOCCOCC(=O)O; Aib = CC(C)(N)C(=O)O
Listing: pEC50 of selected substances
Reminder that pEC50 is minus the log10 of a molar concentration.

The cases that follow already have their pEC50 on record.
{"columns": ["substance", "target_under_test", "reported_result"],
 "data": [
  ["Y[Aib]EGTFTSDYSILLEEQAAREFIEWLLAGGPSSGAGQAPGQAPGASHLSTAALGRLSAELHK([AEEA-AEEA-γGlu-C18 diacid])LATLPRTETGSGSP-NH2 [Compound 53]", "human amylin receptor (hAMYR3) (Homo sapiens, UniProt O60896+P30988)", 10.12],
  ["Y[Aib]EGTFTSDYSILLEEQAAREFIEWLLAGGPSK([AEEA-AEEA-γGlu-C18 diacid])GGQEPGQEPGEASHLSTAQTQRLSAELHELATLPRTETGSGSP-NH2 [Compound 39]", "human amylin receptor (hAMYR3) (Homo sapiens, UniProt O60896+P30988)", 9.85],
  ["Y[Aib]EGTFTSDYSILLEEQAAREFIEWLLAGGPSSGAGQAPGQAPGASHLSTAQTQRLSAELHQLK([AEEA-AEEA-γGlu-C18 diacid])TLPRTETGSGSP-NH2 [Compound 102]", "human amylin receptor (hAMYR3) (Homo sapiens, UniProt O60896+P30988)", 9.87],
  ["H[Aib]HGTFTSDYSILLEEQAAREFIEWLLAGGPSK([AEEA-AEEA-γGlu-C18 diacid])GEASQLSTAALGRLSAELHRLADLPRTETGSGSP-NH2 [Compound 43]", "human amylin receptor (hAMYR3) (Homo sapiens, UniProt O60896+P30988)", 10.25],
  ["Y[Aib]EGTFTSDYSILLEEQAAREFIEWLLAGGPSSGALQAPGQAPLASHLSTAQTQRLSAELHK([AEEA-AEEA-γGlu-C20 diacid])LATLPRTETGSGSP-NH2 [Compound 99]", "human amylin receptor (hAMYR3) (Homo sapiens, UniProt O60896+P30988)", 9.89]
]}

Here is another substance to look at.
Entry Y[Aib]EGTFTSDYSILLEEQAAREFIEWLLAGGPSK([AEEA-AEEA-γGlu-C16 diacid])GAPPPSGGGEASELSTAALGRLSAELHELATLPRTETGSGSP-NH2 [compound 10] has what pEC50?
9.76
